Data origin, for the record: patent US20210403579A1

Target: T1, Human ST2 (human, UniProt Q01638 19-328, limits assumed)
T1 construct: also called human ST2 protein; Interleukin 1 receptor-like 1
T1 sequence (looked up): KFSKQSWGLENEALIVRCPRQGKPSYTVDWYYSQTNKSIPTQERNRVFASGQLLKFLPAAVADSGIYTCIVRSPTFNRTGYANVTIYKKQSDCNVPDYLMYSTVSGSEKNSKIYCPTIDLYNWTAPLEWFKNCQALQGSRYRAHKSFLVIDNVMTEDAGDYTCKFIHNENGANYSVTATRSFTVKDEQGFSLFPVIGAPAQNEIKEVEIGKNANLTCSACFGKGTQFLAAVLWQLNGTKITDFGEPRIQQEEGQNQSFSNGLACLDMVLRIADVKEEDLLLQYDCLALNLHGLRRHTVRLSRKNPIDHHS
Assay: SPR (Carterra), antibody immobilized, ST2 analyte
Measured quantity: kon (M⁻¹ s⁻¹)
Reply numerically in M⁻¹ s⁻¹, unit not repeated.

Human ST2 IgG1 Antibody 66 (antibody, V domains shown, IgG1; also called ST2 Antibody 66) VH: QVQLVQSGAEVKKPGSSVKVSCKASGGTFSSNAISWVRQAPGQGLEWMGGIIPIFGTANYAQKFQGRVTITADESTSTAYMELSSLRSEDTAVYYCAGSPTGTPRVVFDYWGQGTLVTVSS VL: DIVMTQSPLSLPVTPGEPASISCRSSQSLLHSNGYNYLDWYLQKPGQSPQLLIYAASSLQSGVPDRFSGSGSGTDFTLKISRVEAEDVGVYYCMQALQTPITFGQGTRLEIKR: 16000

// recorded kon for Human ST2 IgG1 Antibody 21 (antibody, V domains shown, IgG1; also called ST2 Antibody 21) VH: QVQLVQSGAEVKKPGASVKVSCKASGYTFSNHYMHWVRQAPGQGLEWMGWVNPTSGNTGYAQKFQGRVTMTRDTSTSTVYMELSSLRSEDTAVYYCARDLGVTYFDLWGRGTLVTVSS VL: DIQMTQSPSSLSASVGDRVTITCRASQGISSWLAWYQQKPGKAPKLLIYEASHLETGVPSRFSGSGSGTDFTLTISSLQPEDFATYYCLQDYNYPLTFGGGTKVEIKR : 21000
